Target: T1, recombinant human CD137 (Homo sapiens, UniProt Q07011)
T1 construct: made in house; host or cells: FreeStyle293F
T1 sequence (Q07011 with tags, fused parts or gaps): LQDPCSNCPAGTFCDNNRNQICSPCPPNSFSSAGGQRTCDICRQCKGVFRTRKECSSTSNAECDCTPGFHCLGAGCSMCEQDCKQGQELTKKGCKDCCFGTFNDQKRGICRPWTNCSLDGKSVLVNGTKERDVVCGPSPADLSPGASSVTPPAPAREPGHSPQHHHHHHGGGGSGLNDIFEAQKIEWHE
Assay: Biacore T200 SPR affinity of Dual-Fab antibodies to human CD137
Type: binding
Settings: 37 degrees C, pH 7.4
Label condition met when CD137 Koff is at or above 0.0006 s⁻¹; anything below gets condition not met.

# molecule, label
measured = [
    ("H2591L0581: affinity matured Dual-Fab variant, VH SEQ ID NO 101, VL SEQ ID NO 143 (antibody, V domains shown) VH: QVQLVESGGGLVQPGRSLRLSCAASGFKFSNVWFHWVRQAPGKGLEWVAQIKDYYNAYAGYYHPSVKGRFTISRDDSKNSIYLQMNSLKTEDTAVYYCHYVHYAAASTLLPAEGVDAWGQGTTVTVSS VL: DIVMTQSPLSLPVTPGEPASISCQPSQEVVHMNRNTYLHWYQQKPGQAPRLLIYKVSNRFPGVPDRFSGSGSGTDFTLKISRVEAEDVGVYYCAQGTSHPFTFGQGTKLEIK", "condition met"),
    ("H1673L0581: affinity matured Dual-Fab variant, VH SEQ ID NO 100, VL SEQ ID NO 143 (antibody, V domains shown) VH: QVQLVESGGGLVQPGRSLRLSCAASGFVFSNVWFHWVRQAPGKGLEWVAQIKDKWNAYADYYAPSVKERFTISRDDSKNSIYLQMNSLKTEDTAVYYCHYIHYASASTLLPAEGIDAWGQGTTVTVSS VL: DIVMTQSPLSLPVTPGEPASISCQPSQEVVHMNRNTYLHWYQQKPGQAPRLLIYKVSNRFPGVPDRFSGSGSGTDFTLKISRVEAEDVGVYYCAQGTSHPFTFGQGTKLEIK", "condition met"),
    ("H1649L0943: affinity matured Dual-Fab variant, VH SEQ ID NO 97, VL SEQ ID NO 146 (antibody, V domains shown) VH: QVQLVESGGGLVQPGRSLRLSCAASGFVFSNVWFHWVRQAPGKGLEWVAQIKDKYNAYADYYAPSVKERFTISRDDSKNSIYLQMNSLKTEDTAVYYCHYVHYASASTLLPAEGVDAWGQGTTVTVSS VL: DIVMTQSPLSLPVTPGEPASISCQPSEEVVHMNRNTYLHWYQQKPGQAPRLLIYKVSNLFPGVPDRFSGSGSGTDFTLKISRVEAEDVGVYYCAQGTHHPFTFGQGTKLEIK", "condition not met"),
    ("H1649L0581: affinity matured Dual-Fab variant, VH SEQ ID NO 97, VL SEQ ID NO 143 (antibody, V domains shown) VH: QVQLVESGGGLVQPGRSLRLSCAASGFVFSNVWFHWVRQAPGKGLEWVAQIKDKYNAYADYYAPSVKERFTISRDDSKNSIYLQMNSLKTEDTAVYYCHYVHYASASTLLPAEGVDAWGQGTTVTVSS VL: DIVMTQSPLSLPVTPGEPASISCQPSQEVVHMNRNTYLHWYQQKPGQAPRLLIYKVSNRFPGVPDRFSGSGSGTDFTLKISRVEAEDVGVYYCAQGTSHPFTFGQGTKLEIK", "condition not met"),
    ("H1647L0581: affinity matured Dual-Fab variant, VH SEQ ID NO 96, VL SEQ ID NO 143 (antibody, V domains shown) VH: QVQLVESGGGLVQPGRSLRLSCAASGFKFSNTWFHWVRQAPGKGLEWVAQIKDYYNDYAAYYAPSVKGRFTISRDDSKNSIYLQMNSLKTEDTAVYYCHYVHYASASTLLPAEGVDAWGQGTTVTVSS VL: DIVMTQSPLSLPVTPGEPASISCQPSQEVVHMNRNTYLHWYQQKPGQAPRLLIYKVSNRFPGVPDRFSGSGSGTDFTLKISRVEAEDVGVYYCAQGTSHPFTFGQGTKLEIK", "condition met"),
    ("H2594L0581: affinity matured Dual-Fab variant, VH SEQ ID NO 102, VL SEQ ID NO 143 (antibody, V domains shown) VH: QVQLVESGGGLVQPGRSLRLSCAASGFKFSNVWFHWVRQAPGKGLEWVAQIKDYYNAYAGYYHPSVKGRFTISRDDSKNSIYLQMNSLKTEDTAVYYCHYVHYAAASQLLPAEGVDAWGQGTTVTVSS VL: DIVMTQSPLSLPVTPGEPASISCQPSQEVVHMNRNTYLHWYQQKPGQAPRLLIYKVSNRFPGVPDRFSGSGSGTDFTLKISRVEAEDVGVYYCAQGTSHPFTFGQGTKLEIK", "condition met"),
    ("H183L072: parental Dual-Fab (CD3/CD137), VH SEQ ID NO 90, VL SEQ ID NO 142 (antibody, V domains shown) VH: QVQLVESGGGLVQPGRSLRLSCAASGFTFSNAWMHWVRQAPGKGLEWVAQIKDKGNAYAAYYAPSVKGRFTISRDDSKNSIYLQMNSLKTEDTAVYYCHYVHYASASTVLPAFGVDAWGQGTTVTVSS VL: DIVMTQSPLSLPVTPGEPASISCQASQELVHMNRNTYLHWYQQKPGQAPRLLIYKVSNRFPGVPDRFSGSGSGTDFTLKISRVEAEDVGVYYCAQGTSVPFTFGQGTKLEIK", "condition met"),
    ("H0868L0581: affinity matured Dual-Fab variant, VH SEQ ID NO 91, VL SEQ ID NO 143 (antibody, V domains shown) VH: QVQLVESGGGLVQPGRSLRLSCAASGFKFSNVWMHWVRQAPGKGLEWVAQIKDKYNAYAAYYAPSVKGRFTISRDDSKNSIYLQMNSLKTEDTAVYYCHYVHYASASTLLPAFGVDAWGQGTTVTVSS VL: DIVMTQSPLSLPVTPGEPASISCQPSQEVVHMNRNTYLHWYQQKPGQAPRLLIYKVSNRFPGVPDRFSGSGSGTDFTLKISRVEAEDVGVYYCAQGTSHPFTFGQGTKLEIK", "condition met"),
]
